The binders listed here are annotated with their kon.
- target or test system: T1, CD28 (detection antigen of the BLI assay) (human, UniProt P10747 19-152, limits assumed)
- T1 construct: also called the antigen
- procedure summary: BLI (GATOR); antibody loaded at 30 nM, antigen 300-37.5 nM
readout type: kon (M⁻¹ s⁻¹)

>>> assay_value("huVH2huVL3 (antibody, human IgG1, kappa, V domains shown) VH: QVQLQESGPGLVKPSETLSITCTVSGFSLSDYGVHWVRQPPGKGLEWLGVIWAGGGTNYNSALMSRKTISKDTSKNQVSLKMSSLTAADTAVYYCARDKGYSYYYSMDYWGQGTTVTVSS VL: DIQLTQSPSSLSASVGDRVTITCRASESVEYYVTSLMQWYQQKPGKAPKLLIFAASNVESGVPSRFSGSGSGTDFTLTISSLQPEDFATYYCQQSRKVPYTFGGGTKLEIKR")
85400
>>> assay_value("huVH3huVL3 (antibody, human IgG1, kappa, V domains shown) VH: QVQLQESGPGLVKPSETLSLTCTVSGFSLSDYGVHWVRQSPGKGLEWIGVIWAGGGTNYNSALKSRKTISKDNSKSQVSLKLSSVTAADTAVYYCARDKGYSYYYSMDYWGQGTTVTVSS VL: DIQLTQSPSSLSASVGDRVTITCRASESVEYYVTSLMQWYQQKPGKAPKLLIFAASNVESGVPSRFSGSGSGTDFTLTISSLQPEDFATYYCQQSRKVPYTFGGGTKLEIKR")
85300
>>> assay_value("huVH2huVL2 (antibody, human IgG1, kappa, V domains shown) VH: QVQLQESGPGLVKPSETLSITCTVSGFSLSDYGVHWVRQPPGKGLEWLGVIWAGGGTNYNSALMSRKTISKDTSKNQVSLKMSSLTAADTAVYYCARDKGYSYYYSMDYWGQGTTVTVSS VL: DIQLTQSPSSLSASVGDRVTITCRASESVEYYVTSLMQWYQQKPGKAPKLLIFAASNVESGVPSRFSGSGSGTNFTLTISSVQPEDFATYFCQQSRKVPYTFGGGTKLEIKR")
88700
>>> assay_value("huVH5huVL2 (antibody, human IgG1, kappa, V domains shown) VH: QVQLQESGPGLVKPSETLSLTCTVSGFSISDYGVHWIRQPPGKGLEWIGVIWAGGGTNYNPSLKSRVTISVDTSKNQVSLKLSSVTAADTAVYYCARDKGYSYYYSMDYWGQGTTVTVSS VL: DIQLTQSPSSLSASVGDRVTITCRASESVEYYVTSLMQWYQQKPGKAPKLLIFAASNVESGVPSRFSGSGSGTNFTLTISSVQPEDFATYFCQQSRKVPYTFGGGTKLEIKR")
84100

Reference source for all entries: patent US20250381223A1
